Measurement notes: inhibitors of mutant huntingtin aggregation, primary screen, imaging, exon1htt(103Q)mCFP cells, high-content imaging (AID 483);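 also: compound exposure lasted 3 days before fixation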
Condition label: exon1htt(103Q)mCFP cell line, aggregate imaging, at 2 µM; stronger effect = higher value
We use 10% as the dividing line for inhibition of aggregation: on or above the line is condition met, below is condition not met.

See these solved cases before continuing.
COCCCN(Cc1ccccn1)S(=O)(=O)Cc1ccccc1 :: condition not met
CCOC(=O)N1CCN(CC(=O)c2c(C)[nH]c3ccccc23)CC1 :: condition not met
COC(=O)CCCCCc1ccc(C(C)=O)s1 :: condition met
CCC1CCCCN1CCNS(=O)(=O)c1ccc2c(c1)oc(=O)n2C (configuration not stated) :: condition met
CCCn1nc(CC(=O)O)c2ccccc2c1=O :: condition met
O=C1NC2=C(C(=O)CCC2)C(c2ccc3ncccc3c2)N1 (configuration not stated) :: condition not met

For the next question, use this compound.
Tell me whether inhibition of aggregation is at least 10% here: O=C(COc1cccc(Oc2ccccc2)c1)Nc1ncccn1
condition met

* * *

Measurement notes: inhibitors of poly I:C-induced TLR3 signaling, primary screen, cell-based, poly I:C stimulus, luciferase, 10K MLSCN set (AID 602277)
Condition label: HEK293-TLR3 RL24 IRF3 luciferase reporter, at 10 µM, stronger effect = higher value
Give inhibition for every item shown.
Numbers only, in %.

Known results for compounds:
CC1/C(=N/O)C(CN(C)C)C2CC1C2(C)C (centres undefined) :: 11.5
COc1ccc(/C(O)=C2/C(=O)C(=O)N(CCCN(C)C)C2c2ccc(Cl)cc2)cc1OC (centres undefined) :: 10.6
O=C(NC1CC1)C1CCC(=O)N1C1CCCC1 (centres undefined) :: 14.9
Cc1nnc(NC(=O)CSc2cn(CCNC(=O)c3ccccc3)c3ccccc23)s1 :: -44.3
Cc1ccc(C)c(S(=O)(=O)n2cnc3ccccc32)c1 :: 27.4

Working through the 2 compounds below one at a time, give inhibition for each.
1. Cc1nnc(NC(=O)CSc2nc3c(c(=O)n2C)SC(C)C3)s1 (centres undefined)
2. CC(=O)NCCOc1cccc(OCCNC(C)=O)c1

1. 34.3
2. -11.9

Working through the 2 compounds below one at a time, give inhibition for each.
1. COc1cccc(NC(=O)C2CCCN(S(=O)(=O)c3cccc4cccnc34)C2)c1 (centres undefined)
2. CC(C)CSc1nc2ccccc2n1CC(N)=O

23.1
15.2

Working through the 2 compounds below one at a time, give inhibition for each.
1. Oc1c(C(c2ccccc2)N2CCc3ccccc3C2)sc2ncnn12 (centres undefined)
2. CCOC(=O)C1CCN(C(=O)c2ccc(Cl)c(Cl)c2)CC1

1: 30.7; 2: -5.49

* * *

Measurement notes: inhibitors of E-selectin induction by TNFa, primary screen, imaging, HUVEC, immunofluorescence, MLSMR starter and 10KST1 sets (AID 487);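 also: 100% = median nuclei count of all wells on the same plate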
Condition label: HUVEC TNFalpha-induced E-selectin immunofluorescence imaging, at 2 µM; measured here: cell number, toxicity
Assay metric: nuclei count (%)
Answers are plain numbers, in %.

N#Cc1ccccc1Cn1c(=O)n(Cc2ccc(C(=O)NCc3ccco3)cc2)c(=O)c2sccc21 :: 115
Cc1nn(C)c(C)c1S(=O)(=O)N1CCCC(C(=O)N2CCN(c3ccc(Cl)cc3)CC2)C1 (centres undefined) :: 85.9
N#CC1=C(N)OC2=C(C(=O)CCC2)[C@]12C(=O)N(CC(N)=O)c1ccccc12 :: 130
COc1ccc2nc3oc(C(=O)N4CCCCC4)cc3cc2c1 :: 112
O=c1[nH]c2cnccc2n1-c1ccccc1 :: 162
N#Cc1ccccc1NC(=O)CSc1nnc(-c2ccccc2)n1-c1ccccc1 :: 83.7

Working through the 7 compounds below one at a time, give nuclei count for each.
1. COc1ccc(CC(=O)n2c(CC#N)nc3ccccc32)cc1OC
2. CCCCC(=O)NCCc1cc2ccc(OC)cc2[nH]c1=O
3. CCOc1ccc2c(c1)c1nnc(SCC(=O)N3CCC(C)CC3)nc1n2C
4. CCOC(=O)C(CCc1nnc(N)s1)C(=O)OCC
5. CCC(NC(=O)Nn1cnnc1)(C(F)(F)F)C(F)(F)F
6. O=C(COc1ccc(=O)n(-c2ccccc2)n1)Nc1ccccc1
7. O=C(c1ccccc1Oc1nnnn1-c1ccccc1)N1CCOCC1

1. 112
2. 91.4
3. 114
4. 98.7
5. 185
6. 119
7. 113

* * *

Test target: Voltage-gated potassium channel subunit beta-2 (Rattus norvegicus) (UniProt P62483)
Sequence (P62483 whole entry, looked up): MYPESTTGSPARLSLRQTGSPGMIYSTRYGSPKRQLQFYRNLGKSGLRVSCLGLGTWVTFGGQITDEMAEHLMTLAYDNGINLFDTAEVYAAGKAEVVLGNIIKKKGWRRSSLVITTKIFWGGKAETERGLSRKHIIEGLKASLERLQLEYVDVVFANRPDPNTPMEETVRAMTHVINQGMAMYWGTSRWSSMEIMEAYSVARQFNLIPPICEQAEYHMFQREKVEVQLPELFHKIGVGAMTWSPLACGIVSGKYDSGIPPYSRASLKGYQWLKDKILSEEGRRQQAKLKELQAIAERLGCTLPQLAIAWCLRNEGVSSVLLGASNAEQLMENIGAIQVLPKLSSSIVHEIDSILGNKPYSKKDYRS
Measurement notes: KvBeta enzyme negative modulators, primary screen, biochemical, NADPH fluorescence (AID 622);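 also: slope of raw intensity against log time taken from 70 to 1610 s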
Condition label: recombinant KvBeta, 4-cyanobenzaldehyde reduction, at 10 µM, stronger effect = higher value
Active and inactive are the calls of the source.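 Rule for the calls: active = fluorescence slope higher than the sample average by over 3 SD (cut at about -0.22 in these data, passing the limit was not always enough); inactive = the rest.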
Assay metric: fluorescence slope

Known results for compounds:
COc1ccc(N2CC(C(=O)Nc3ccc(F)cc3F)CC2=O)cc1 (centres undefined) :: -0.514 (inactive)
Cc1ccc2cc(CNC(C)(C)C)c(=O)[nH]c2c1 :: -0.493 (inactive)
O=C1C(=O)N(Cc2cccnc2)C(c2ccccn2)/C1=C(/O)c1ccccc1 (centres undefined) :: -0.503 (inactive)
Cn1c(OCc2cccnc2)nc2c1c(=O)n(Cc1ccccc1)c(=O)n2C :: -0.489 (inactive)
O=C(NCc1ccccn1)c1cc(-n2cnnc2)ccc1Cl :: -0.502 (inactive)
CCOc1ccccc1NC(=O)NC1CCN(CC(=O)Nc2ccc3c(c2)OCCO3)CC1 :: -0.499 (inactive)

Working through the 2 compounds below one at a time, give fluorescence slope for each.
1. CN1CCc2c(n(CC(O)CN3C(=O)c4ccccc4S3(=O)=O)c3ccccc23)C1=O (centres undefined)
2. CCc1cc(=O)oc2cc(C)c(CN3CCCC(C)C3)c(O)c12 (centres undefined)

1. -0.488 (inactive)
2. -0.486 (inactive)

Summary for this compound, CCOC(=O)N1CCC(NC(=O)CS(=O)(=O)Cc2nc(-c3ccccc3C)oc2C)CC1 : fluorescence slope is -0.513 (inactive)

* * *

Test target: Alpha-2C adrenergic receptor (Homo sapiens)
Measurement notes: modulators of alpha2C/GIRK thallium flux, primary screen, cell-based, HEK293 alpha2C/GIRK1/2 (AID 624);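 also: slope of fluorescence ratio to pre-addition baseline per second over 15 to 24 s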
Condition label: thallium flux BTC fluorescence, at 10 µM, actives lie on both sides
Give slope for every item shown.
Answers are plain numbers.

O=C(O)COc1ccc(S(=O)(=O)NCCc2ccccc2)cc1 :: 0.00764

Working through the 5 molecules below one at a time, give slope for each.
1. CCN(CC)c1nc(N(CC)CC)[nH]c(=O)n1
2. COc1ccc(-c2ccc(Nc3ccc(S(=O)(=O)N4CCCC4)cc3)nn2)cc1OC
3. O=C(COC(=O)c1cncc(Br)c1)NCCC1=CCCCC1
4. CC1CCc2nn(CC(=O)NCCN3CCOCC3)cc2C1 (stereo unspecified)
5. NC(=O)c1ccccc1NC(=O)CN1CCOCC1

1. 0.00579
2. 0.004
3. 0.00679
4. 0.00648
5. 0.00501

* * *

Test target: Voltage-gated potassium channel subunit beta-2 (Rattus norvegicus)
Measurement notes: KvBeta positive modulators, primary screen, biochemical, NADPH fluorescence (AID 623);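 also: fluorescence intensity change per second fitted from 20 to 320 s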
Condition label: Recombinant KvBeta, NADPH fluorescence decrease slope, 10 min; at 10 µM; stronger effect = lower value
Give NADPH fluorescence slope for every item shown.
Numbers only.

Known results for compounds:
O=C(/C=N/O)NCc1ccncc1 :: -2.2e-05
c1cncc(-c2nnc3n2N=C(c2cccs2)CS3)c1 :: 5.7e-06
CCCOC(=O)CSC1=C(C#N)C(c2ccc3c(c2)OCO3)CC(=O)N1 (configuration not stated) :: -6.2e-05
Cc1ccc(CCNC(=O)C2CCCN2S(=O)(=O)c2ccc3c(c2)CCC(=O)N3)cc1 (configuration not stated) :: -1e-05
COc1cc(NC(=O)CSCc2cnn(-c3ccccc3)c2-n2cccc2)cc(OC)c1 :: -7.1e-05
COc1cc(C)c(N)cc1C(C)C :: -1.8e-05
CC(=O)OC1CSc2nc3ccccc3n2C1 (configuration not stated) :: -5.5e-05
CC(C)C(NC(=O)c1ccc(S(=O)(=O)N2CCOCC2)cc1)c1nc2ccccc2[nH]1 (configuration not stated) :: -9.2e-05
C=CCOc1ccc(/C=N/n2cncn2)cc1OC :: 2.1e-05
CSc1nc(N)nc(SCCS(=O)(=O)c2ccc(Cl)cc2)c1C#N :: -2.1e-05

Working through the 6 compounds below one at a time, give NADPH fluorescence slope for each.
1. O=C(O)c1cccc(S(=O)(=O)N2CCOCC2)c1
2. CC(C)(C)SCCNC(=O)CN1C(=O)c2ccccc2S1(=O)=O
3. O=C(NCCC1=CCCCC1)c1ccc(=O)oc1
4. CCN1CCN(c2nc3c(c(=O)[nH]c(=O)n3C)n2CCSc2nc3ccccc3s2)CC1
5. O=S1(=O)C=C(Oc2ccc(F)cc2)c2ccccc21
6. CCC(Sc1nc(-c2ccccc2)c(C#N)c(=O)[nH]1)C(=O)Nc1cc(C)on1 (configuration not stated)

1: -0.000388; 2: -8.2e-06; 3: -0.000197; 4: -2.8e-05; 5: -7.4e-05; 6: -1.8e-05

Summary for this compound, CCn1c(SCC(=O)NCc2ccco2)nnc1-c1ccc(N)cc1 : NADPH fluorescence slope is -4.4e-05
